# Test system: total HDAC enzyme (HeLa extract)
# experimental-details: In vitro inhibition of total HDAC enzyme activity (HDAC Fluorimetric Assay/Drug Discovery Kit)
# Format: biochemical
measure: % inhibition of total HDAC enzyme activity at 30 μM (%)

Some solved entries appear below for comparison.
[
  {
    "molecule": "COc1ccc2c(Oc3ccc4c(C(=O)NCc5ccc(C(=O)Nc6ccccc6N)cc5)cccc4c3)ccnc2c1 [Example 33]",
    "tgt": "total HDAC enzyme (HeLa extract)",
    "value-unit": "%",
    "value-measured": 39.1
  },
  {
    "molecule": "COc1cc2ncnc(Oc3ccc4c(C(=O)NCc5ccc(C(=O)Nc6ccccc6N)cn5)cccc4c3)c2cc1OC [Example 25]",
    "tgt": "total HDAC enzyme (HeLa extract)",
    "value-unit": "%",
    "value-measured": 47.9
  },
  {
    "molecule": "COc1cc2ncnc(Oc3ccc4c(C(=O)Nc5ccc(C(F)(F)F)cc5N)cccc4c3)c2cc1OC [Example 22]",
    "tgt": "total HDAC enzyme (HeLa extract)",
    "value-unit": "%",
    "value-measured": 17
  },
  {
    "molecule": "COc1cc2ncnc(Oc3ccc4c(C(=O)Nc5ccc(F)cc5N)cccc4c3)c2cc1OC [Example 17]",
    "tgt": "total HDAC enzyme (HeLa extract)",
    "value-unit": "%",
    "value-measured": 22.5
  },
  {
    "molecule": "COc1cc2ncnc(Oc3ccc4c(C(=O)NCc5ccc(C(=O)Nc6ccccc6N)cc5)cccc4c3)c2cc1OC [Example 23]",
    "tgt": "total HDAC enzyme (HeLa extract)",
    "value-unit": "%",
    "value-measured": 49.4
  },
  {
    "molecule": "COc1ccc(NC(=O)c2cccc3cc(Oc4ncnc5cc(OC)c(OC)cc45)ccc23)c(N)c1 [Example 19]",
    "tgt": "total HDAC enzyme (HeLa extract)",
    "value-unit": "%",
    "value-measured": 21.9
  }
]

1: COc1cc2ncnc(Oc3ccc4c(C(=O)Nc5ccc(Cl)cc5N)cccc4c3)c2cc1OC [Example 20]
2: COc1cc2ncnc(Oc3ccc4c(C(=O)Nc5ccccc5N)cccc4c3)c2cc1OC [Example 16]
3: COc1cc2nccc(Oc3ccc4c(C(=O)NCc5ccc(C(=O)Nc6ccccc6N)cc5)cccc4c3)c2cc1OC [Example 37]
Ascending sort, % inhibition of total HDAC enzyme activity at 30 μM. Use the labels to give the ranking in the order requested. 2, 1, 3

1: COc1cc2ncnc(Oc3ccc4c(C(=O)Nc5ccc(C)cc5N)cccc4c3)c2cc1OC [Example 18]
2: COc1ccc2c(Oc3ccc4c(C(=O)Nc5ccccc5N)cccc4c3)ccnc2c1 [Example 31]
Which of the two gives a bigger number for % inhibition of total HDAC enzyme activity at 30 μM: 1 or 2 ? Give the chosen item's label as your response. 1

A: Nc1ccccc1NC(=O)c1cccc2cc(Oc3ccnc4c(C(F)(F)F)cccc34)ccc12 [Example 42]
B: COc1cc2ncnc(Oc3ccc4c(C(=O)Nc5ccc(Br)cc5N)cccc4c3)c2cc1OC [Example 21]
For the two items A and B , which reports the higher % inhibition of total HDAC enzyme activity at 30 μM value? // output: label of the selected item B
(B: 18.6%, A: 6.2%)

Taken from patent US8211901B2.
